system: ZR-75-1 Tam1; test: drug sensitivity score (DSS) (DSS (dimensionless)); higher = more sensitive; extreme values may be limits of the assay; settings: 4-OH-tamoxifen in medium 1 µM; 72 h
PARAMETER: drug sensitivity score
The response must contain the number and no unit.

// solved cases for drug sensitivity score follow
{"COMPOUND": "Cc1cn(-c2cc(NC(=O)c3ccc(C)c(Nc4nccc(-c5cccnc5)n4)c3)cc(C(F)(F)F)c2)cn1", "drug sensitivity score": 0}
{"COMPOUND": "Cc1cc(C(C)Nc2ccccc2)c2nc(N3CCOCC3)cc(=O)n2c1 (stereo not drawn)", "drug sensitivity score": 9.5}

Request: Hi! What's the reported drug sensitivity score for CC(C)(C)c1cc(NC(=O)Nc2ccc(-c3cn4c(n3)sc3cc(OCCN5CCOCC5)ccc34)cc2)no1 on ZR-75-1 Tam1?
Result: 0

---

test system: T-47D Tam2; experiment: viability inhibition at highest dose (% inhibition); higher = more growth inhibition; conditions: 4-OH-tamoxifen in medium 1 µM; 72 h
Reported viability inhibition at highest dose values for a set of compounds
The response must contain the number and no unit.

// solved cases for viability inhibition at highest dose follow
{"COMPOUND": "CS(=O)(=O)OCCCCOS(C)(=O)=O [Busulfan] (drug 100000 nM)", "MEASURED TARGET": "T-47D Tam2", "viability inhibition at highest dose": 6.32}
{"COMPOUND": "C=CCN(/C=C1/C(=O)O[C@H](COC)[C@@]2(C)C1=C(O)C(=O)C1=C2[C@H](OC(C)=O)C[C@]2(C)C(=O)CC[C@@H]12)CC=C [Sonolisib (PX-866)] (drug 10000 nM)", "MEASURED TARGET": "T-47D Tam2", "viability inhibition at highest dose": 9.95}
{"COMPOUND": "CNC(=O)c1ccc(N2C(=S)N(c3ccc(C#N)c(C(F)(F)F)c3)C(=O)C2(C)C)cc1F [Enzalutamide (MDV 3100)] (drug 10000 nM)", "MEASURED TARGET": "T-47D Tam2", "viability inhibition at highest dose": 7.78}

Request: Find the recorded viability inhibition at highest dose belonging to COc1cc2ncnc(Nc3ccc(F)c(Cl)c3)c2cc1OCCCN1CCOCC1 [Gefitinib] (drug 10000 nM) and report it.
Result: 47.3

Request: Find the recorded viability inhibition at highest dose belonging to CC(C)C[C@H](NC(=O)[C@H](CCc1ccccc1)NC(=O)CN1CCOCC1)C(=O)N[C@@H](Cc1ccccc1)C(=O)N[C@@H](CC(C)C)C(=O)[C@@]1(C)CO1 [Carfilzomib] (drug 1000 nM) and report it.
Result: 96.8

Request: Find the recorded viability inhibition at highest dose belonging to C[C@]1(c2nc3c(C(N)=O)cccc3[nH]2)CCCN1 [Veliparib (ABT-888)] (drug 10000 nM) and report it.
Result: 6.94

Request: Find the recorded viability inhibition at highest dose belonging to Nc1nc(=O)c2c([nH]1)NCC(CNc1ccc(C(=O)N[C@@H](CCC(=O)O)C(=O)O)cc1)N2C=O (mixture of isomers) [Folinic acid] (drug 990000 nM) and report it.
Result: -14.6

---

Reported viability inhibition at highest dose values for a set of compounds
test system: MCF-7; assay: viability inhibition at highest dose (% inhibition); higher = more growth inhibition; details: 4-OH-tamoxifen in medium 0 µM; 72 h

{"COMPOUND": "COc1c(C)cnc(Cn2cnc3c(Cl)nc(N)nc32)c1C [BIIB021] (drug 10000 nM)", "PARAMETER": "viability inhibition at highest dose", "VALUE REPORTED": 56.8}
{"COMPOUND": "CC(C)C[C@@H](C(=O)N[C@H](C(=O)OC1CCCC1)c1ccccc1)[C@H](O)C(=O)NO [Tosedostat (CHR 2797)] (drug 10000 nM)", "PARAMETER": "viability inhibition at highest dose", "VALUE REPORTED": 40.5}
{"COMPOUND": "C[C@H]1C[C@@H]2[C@H]([C@@H](O)C[C@@]3(C)[C@H]2CC[C@]3(O)C(=O)CO)[C@@]2(C)C=CC(=O)C=C12 [Methylprednisolone] (drug 10000 nM)", "PARAMETER": "viability inhibition at highest dose", "VALUE REPORTED": -1.81}
{"COMPOUND": "O=P1(NCCCl)OCCCN1CCCl (stereo not drawn) [Ifosfamide] (drug 10000 nM)", "PARAMETER": "viability inhibition at highest dose", "VALUE REPORTED": -17.9}
{"COMPOUND": "C[C@@]1(C(=O)Nc2ccc(F)nc2)CCCN1c1nc(Nc2cc(C3CC3)n[nH]2)c2cccn2n1 (drug 10000 nM)", "PARAMETER": "viability inhibition at highest dose", "VALUE REPORTED": 67.7}

Request: Hi! What's the reported viability inhibition at highest dose for Nc1ccn([C@@H]2O[C@H](CO)[C@@H](O)C2(F)F)c(=O)n1 [Gemcitabine] (drug 1000 nM) on MCF-7?
Result: 25.8

Request: Hi! What's the reported viability inhibition at highest dose for O=C(Nc1ccncc1)C(=O)c1cn(Cc2ccc(Cl)cc2)c2ccccc12 [Indibulin] (drug 10000 nM) on MCF-7?
Result: 36.4

Request: Hi! What's the reported viability inhibition at highest dose for Cc1c(C(=O)Nc2ccc(N3C[C@@H](C)O[C@@H](C)C3)nc2)cccc1-c1ccc(OC(F)(F)F)cc1 [Erismodegib (NVP-LDE225)] (drug 10000 nM) on MCF-7?
Result: 23.2

---

test system: MCF-7 Tam1; experiment: relative IC50 (midpoint of fitted logistic curve, plateau may be below 50% inhibition; CellTiter-Glo viability); higher = less potent; conditions: 4-OH-tamoxifen in medium 1 µM; 72 h
Reported relative IC50 values for a set of molecules

Request: Find the recorded relative IC50 belonging to O=C(O)CC[C@H]1CC[C@@](c2cc(F)ccc2F)(S(=O)(=O)c2ccc(Cl)cc2)CC1 and report it.
Result: > 1 µM

Request: Find the recorded relative IC50 belonging to S=P(N1CC1)(N1CC1)N1CC1 and report it.
Result: > 100 µM

Request: Find the recorded relative IC50 belonging to Cc1cc(Nc2cc(CN3CCOCC3)c3nc(C)c(Cc4ccc(Cl)cc4F)n3n2)n[nH]1 and report it.
Result: 3.26 µM

Request: Find the recorded relative IC50 belonging to Cc1cn(-c2cc(NC(=O)c3ccc(C)c(Nc4nccc(-c5cccnc5)n4)c3)cc(C(F)(F)F)c2)cn1 and report it.
Result: > 10 µM

---

Reported relative IC50 values for a set of compounds
tested on: BT-474; experiment: relative IC50 (midpoint of fitted logistic curve, plateau may be below 50% inhibition; CellTiter-Glo viability); higher = less potent; conditions: 4-OH-tamoxifen in medium 1 µM; 72 h

{"ITEM SMILES": "CO[C@H]1C[C@@H]2CC[C@@H](C)[C@@](O)(O2)C(=O)C(=O)N2CCCC[C@H]2C(=O)O[C@H]([C@H](C)C[C@@H]2CC[C@@H](OC(=O)C(C)(CO)CO)[C@H](OC)C2)CC(=O)[C@H](C)/C=C(\\C)[C@@H](O)[C@@H](OC)C(=O)[C@H](C)C[C@H](C)/C=C/C=C/C=C/1C", "relative IC50": "> 0.1 µM"}
{"ITEM SMILES": "O=C(c1cc(Cc2n[nH]c(=O)c3ccccc23)ccc1F)N1CCN(C(=O)C2CC2)CC1", "relative IC50": "> 10 µM"}
{"ITEM SMILES": "NC(=O)c1cccc2cn(-c3ccc([C@@H]4CCCNC4)cc3)nc12", "relative IC50": "> 10 µM"}

Request: Find the recorded relative IC50 belonging to C[C@]12CC[C@H](O)CC1=CC[C@@H]1[C@@H]2CC[C@]2(C)C(c3cccnc3)=CC[C@@H]12 and report it.
Result: > 5 µM

Request: Find the recorded relative IC50 belonging to O=S(=O)(c1cccc2cnccc12)N1CCCNCC1 and report it.
Result: > 50 µM

Request: Find the recorded relative IC50 belonging to Cc1cnc(NC(=O)Nc2cc(Br)c(C)cc2OC[C@@H]2CNCCO2)cn1 and report it.
Result: > 1 µM

Request: Find the recorded relative IC50 belonging to Nc1nc(Cl)nc2c1ncn2[C@@H]1O[C@H](CO)[C@@H](O)[C@@H]1F and report it.
Result: > 10 µM

Request: Find the recorded relative IC50 belonging to C1CN1c1nc(N2CC2)nc(N2CC2)n1 and report it.
Result: > 10 µM

---

system: BT-474 Tam2; assay: viability inhibition at highest dose (% inhibition); higher = more growth inhibition; conditions: 4-OH-tamoxifen in medium 1 µM; 72 h
PARAMETER: viability inhibition at highest dose

{"COMPOUND": "Cc1cccc(-c2nn3c(c2-c2ccnc4ccc(C(N)=O)cc24)CCC3)n1 (drug 1000 nM)", "viability inhibition at highest dose": -0.548}
{"COMPOUND": "CN(N=O)C(=O)N[C@@H](C=O)[C@@H](O)[C@H](O)[C@H](O)CO [Streptozocin] (drug 10000 nM)", "viability inhibition at highest dose": -7.21}
{"COMPOUND": "Cc1cnc(NC(=O)Nc2cc(Br)c(C)cc2OC[C@@H]2CNCCO2)cn1 (drug 1000 nM)", "viability inhibition at highest dose": -6.01}
{"COMPOUND": "Cc1ccc(C(=O)N(CCCN)[C@@H](c2oc3cc(Cl)ccc3c(=O)c2Cc2ccccc2)C(C)C)cc1 (drug 100 nM)", "viability inhibition at highest dose": -0.695}
{"COMPOUND": "CC(C)(C)c1cnc(CSc2cnc(NC(=O)C3CCNCC3)s2)o1 [SNS-032] (drug 10000 nM)", "viability inhibition at highest dose": 87.2}
{"COMPOUND": "S=c1[nH]cnc2nc[nH]c12 [Mercaptopurine] (drug 10000 nM)", "viability inhibition at highest dose": 6.87}
{"COMPOUND": "Cc1cc(Nc2cc(CN3CCOCC3)c3nc(C)c(Cc4ccc(Cl)cc4F)n3n2)n[nH]1 (drug 10000 nM)", "viability inhibition at highest dose": 96.4}
{"COMPOUND": "Oc1ncnc2[nH]ncc12 [Allopurinol] (drug 10000 nM)", "viability inhibition at highest dose": 8.84}

Request: Hi! What's the reported viability inhibition at highest dose for NCC(=O)CCC(=O)O [Aminolevulinic acid] (drug 10000 nM) on BT-474 Tam2?
Result: -2.75

Request: Hi! What's the reported viability inhibition at highest dose for O=C(O)CC[C@H]1CC[C@@](c2cc(F)ccc2F)(S(=O)(=O)c2ccc(Cl)cc2)CC1 [MK-0752] (drug 1000 nM) on BT-474 Tam2?
Result: 2.64

Request: Hi! What's the reported viability inhibition at highest dose for Nc1nc2[nH]cc(CCc3ccc(C(=O)N[C@@H](CCC(=O)O)C(=O)O)cc3)c2c(=O)[nH]1 [Pemetrexed] (drug 10000 nM) on BT-474 Tam2?
Result: 4.1

Request: Hi! What's the reported viability inhibition at highest dose for Nc1ccn([C@@H]2O[C@H](CO)[C@@H](O)[C@@H]2O)c(=O)n1 [Cytarabine] (drug 10000 nM) on BT-474 Tam2?
Result: 1.43

Request: Hi! What's the reported viability inhibition at highest dose for CC1(C)CNc2cc(NC(=O)c3cccnc3NCc3ccncc3)ccc21 [Motesanib (AMG-706)] (drug 10000 nM) on BT-474 Tam2?
Result: -2.84

Request: Hi! What's the reported viability inhibition at highest dose for COc1cc2ncnc(Nc3ccc(F)c(Cl)c3)c2cc1OCCCN1CCOCC1 [Gefitinib] (drug 10000 nM) on BT-474 Tam2?
Result: 96.8

Request: Hi! What's the reported viability inhibition at highest dose for COc1cc(F)c(F)c(Nc2ccc(I)cc2F)c1NS(=O)(=O)C1(C[C@H](O)CO)CC1 [Refametinib (RDEA119)] (drug 10000 nM) on BT-474 Tam2?
Result: 14
